Listed next: entries and their corresponding STK11 functional score.
B1: library; numbered along this chain (parent)
chain: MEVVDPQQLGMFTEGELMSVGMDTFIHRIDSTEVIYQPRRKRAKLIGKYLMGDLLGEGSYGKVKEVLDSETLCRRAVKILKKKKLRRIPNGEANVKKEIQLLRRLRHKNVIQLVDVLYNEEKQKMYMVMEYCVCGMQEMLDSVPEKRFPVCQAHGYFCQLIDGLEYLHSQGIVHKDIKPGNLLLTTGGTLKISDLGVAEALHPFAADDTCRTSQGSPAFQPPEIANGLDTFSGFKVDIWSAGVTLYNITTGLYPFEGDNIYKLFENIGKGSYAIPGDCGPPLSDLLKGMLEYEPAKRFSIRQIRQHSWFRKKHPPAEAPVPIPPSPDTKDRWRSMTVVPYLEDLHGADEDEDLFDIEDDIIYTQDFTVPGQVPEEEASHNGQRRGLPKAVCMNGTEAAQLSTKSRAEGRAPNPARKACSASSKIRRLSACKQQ

variants of: B1; test: STK11 functional score (HeLa growth suppression), rescaled enrichment; synonymous median = 1, nonsense median = 0 (normalised score); conditions: with HeLa; variant type: missense
Answer as a number with no unit attached.

See these solved cases before continuing.
Mutation Spec	STK11 functional score
I248E	0.873
I248P	-0.0931
P326G	1.52
A200F	0.455
D277N	1.15

Task: Quick check: STK11 functional score of N90D ?
Output: 1.23
